- ASSAY_TARGET: human melanocortin-4 receptor (recombinant hMC4-R) (human, UniProt P32245 1-332)
- Sequence (P32245 whole entry): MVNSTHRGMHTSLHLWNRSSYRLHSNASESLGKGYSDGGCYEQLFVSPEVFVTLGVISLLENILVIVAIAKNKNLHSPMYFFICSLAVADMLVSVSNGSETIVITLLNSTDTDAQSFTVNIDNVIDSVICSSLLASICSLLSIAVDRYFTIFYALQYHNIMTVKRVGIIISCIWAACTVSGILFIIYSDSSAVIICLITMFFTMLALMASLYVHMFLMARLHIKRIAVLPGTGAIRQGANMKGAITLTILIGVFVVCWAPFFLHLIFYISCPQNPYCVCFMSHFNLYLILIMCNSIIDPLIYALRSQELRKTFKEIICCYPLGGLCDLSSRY
- EXPERIMENTAL_PROTOCOL: cell-based or functional assay
Numbered stars: 1 amine (or outer) side, 2 acyl side, 3 side chain; on linkers, the order of the positions; unused ones are H or OH. Bridge positions count the residues as written; N and C are the ends. Square brackets hold non-standard residues; d marks the D form. Ser(Bzl) = O-benzyl-serine, O=C([C@H](COCc1ccccc1)N[*:1])[*:2]; Orn = NCCC[C@H](N)C(=O)O; Dab = NCC[C@H](N)C(=O)O
Each entry gets FALSE if its Emax (%), cAMP stays under 90%, and TRUE if its Emax (%), cAMP is 90% or above.

BINDER | ASSIGNED_CLASS
Ac-RE[Dab](Ac)[dF]RW[Orn]-NH2 (lactam 2-7) [Peptide No. 18: Ac-Arg-cyclo(Glu-Dab(Acetyl)-D-Phe-Arg-Trp-Orn)-NH2] | FALSE
Ac-RE[Orn][dF]RW[Orn]-NH2 (lactam 2-7) [Peptide No. 8: Ac-Arg-cyclo(Glu-Orn-D-Phe-Arg-Trp-Orn)-NH2] | TRUE
Ac-RD[Ser(Bzl)][dF]RWK-OH (lactam 2-7, also called Peptide Structure (Asp...Lys) in the rows of No. 17 and No. 48) [Asp...Lys analog of peptides No. 17 and No. 48: Ac-Arg-cyclo(Asp-Ser(Bzl)-D-Phe-Arg-Trp-Lys)-OH] | FALSE

Input: Does Emax (%), cAMP meet or surpass 90% for Ac-RE[Dab][dF]RW[Orn]-NH2 (lactam 2-7) [Peptide No. 6: Ac-Arg-cyclo(Glu-Dab-D-Phe-Arg-Trp-Orn)-NH2] ?
Output: TRUE
